# Test system: Klebsiella pneumoniae
# ASSAY INFO: Antimicrobial activity against rifampin resistant Klebsiella pneumoniae 52145R assessed as growth inhibition by Etest method
# Assay type: functional
QUANTITY MEASURED: log10 of MIC (log10 of the value in µg/mL)
Use the decimal logarithm of MIC (µg/mL).

>>> numeric_readout("CC[C@H]1OC(=O)[C@H](C)[C@@H](O[C@H]2C[C@@](C)(OC)[C@@H](O)[C@H](C)O2)[C@H](C)[C@@H](O[C@@H]2O[C@H](C)C[C@H](N(C)C)[C@H]2O)[C@](C)(O)C[C@@H](C)C(=O)[C@H](C)[C@@H](O)[C@]1(C)O")
1.51
>>> numeric_readout("C[C@@H](O)[C@H]1C(=O)N2C(C(=O)O)=C(S[C@@H]3CN[C@H](C(=O)Nc4cccc(C(=O)O)c4)C3)[C@H](C)[C@H]12")
-1.92
>>> numeric_readout("C[C@@H](O)[C@H]1C(=O)N2C(C(=O)O)=C(SCCNC=N)C[C@H]12 [IMIPENEM ANHYDROUS]")
-0.90
>>> numeric_readout("CN(C)[C@@H]1C(O)=C(C(N)=O)C(=O)[C@@]2(O)C(O)=C3C(=O)c4c(O)cccc4[C@@](C)(O)[C@H]3C[C@@H]12")
0.30
>>> numeric_readout("CO/N=C(\\C(=O)N[C@@H]1C(=O)N2C(C(=O)O)=C(COC(C)=O)CS[C@H]12)c1csc(N)n1")
-0.90

// next entry
Exercise: Form field - read-out: log10 of MIC; system: Klebsiella pneumoniae; submitted item: `C[C@H]1COc2c(N3CCN(C)CC3)c(F)cc3c(=O)c(C(=O)O)cn1c23.C[C@H]1COc2c(N3CCN(C)CC3)c(F)cc3c(=O)c(C(=O)O)cn1c23.O`
Solution: -1.05

====

# Tested on: Klebsiella pneumoniae
# ASSAY INFO: Antimicrobial activity against rifampin resistant Klebsiella pneumoniae 52145R assessed as growth inhibition by Etest method
# Format: functional
QUANTITY MEASURED: MIC (mg/L)
# number only, unit mg/L dropped from output

Answered examples (3):
>>> numeric_readout("NC[C@H]1O[C@H](O[C@H]2[C@H](O)[C@@H](O[C@H]3O[C@H](CO)[C@@H](O)[C@H](N)[C@H]3O)[C@H](N)C[C@@H]2N)[C@H](N)C[C@@H]1O [TOBRAMYCIN]")
0.25
>>> numeric_readout("C[C@@H](O)[C@H]1C(=O)N2C(C(=O)O)=C(S[C@@H]3CN[C@H](C(=O)N(C)C)C3)[C@H](C)[C@H]12 [MEROPENEM]")
0.03
>>> numeric_readout("CO[C@@]1(NC(=O)Cc2cccs2)C(=O)N2C(C(=O)O)=C(COC(N)=O)CS[C@@H]21 [CEFOXITIN]")
8

Exercise: For the compound shown here, O=C(N[C@H](CO)[C@H](O)c1ccc([N+](=O)[O-])cc1)C(Cl)Cl [CHLORAMPHENICOL] , give the reported MIC.
Solution: 2

Exercise: For the compound shown here, CCn1cc(C(=O)O)c(=O)c2ccc(C)nc21 [NALIDIXIC ACID] , give the reported MIC.
Solution: 4

====

# Tested on: Klebsiella pneumoniae
# ASSAY INFO: Antimicrobial activity against rifampin resistant Klebsiella pneumoniae 52deltaacrB containing isogenic acrB knockout assessed as growth inhibition by Etest method
# Format: functional
# MIC listing for each entry below
# number only, unit µg/mL dropped from output

>>> numeric_readout("O=C(O)c1cn(C2CC2)c2cc(N3CCNCC3)c(F)cc2c1=O")
0.008
>>> numeric_readout("C[C@@H](O)[C@H]1C(=O)N2C(C(=O)O)=C(SCCNC=N)C[C@H]12 [IMIPENEM ANHYDROUS]")
0.125
>>> numeric_readout("NC[C@H]1O[C@H](O[C@H]2[C@H](O)[C@@H](O[C@H]3O[C@H](CO)[C@@H](O)[C@H](N)[C@H]3O)[C@H](N)C[C@@H]2N)[C@H](N)C[C@@H]1O")
0.125
>>> numeric_readout("CCn1cc(C(=O)O)c(=O)c2ccc(C)nc21")
0.5

// next entry
Exercise: For the compound shown here, `CC[C@H]1OC(=O)[C@H](C)[C@@H](O[C@H]2C[C@@](C)(OC)[C@@H](O)[C@H](C)O2)[C@H](C)[C@@H](O[C@@H]2O[C@H](C)C[C@H](N(C)C)[C@H]2O)[C@](C)(O)C[C@@H](C)C(=O)[C@H](C)[C@@H](O)[C@]1(C)O` , give the reported MIC.
Solution: 8
